Sourced from ChEMBL document CHEMBL4138130

Listing of recorded inhibition by entry.
Target: Prostaglandin G/H synthase 1 (Homo sapiens)
Sequence (P23219 whole entry): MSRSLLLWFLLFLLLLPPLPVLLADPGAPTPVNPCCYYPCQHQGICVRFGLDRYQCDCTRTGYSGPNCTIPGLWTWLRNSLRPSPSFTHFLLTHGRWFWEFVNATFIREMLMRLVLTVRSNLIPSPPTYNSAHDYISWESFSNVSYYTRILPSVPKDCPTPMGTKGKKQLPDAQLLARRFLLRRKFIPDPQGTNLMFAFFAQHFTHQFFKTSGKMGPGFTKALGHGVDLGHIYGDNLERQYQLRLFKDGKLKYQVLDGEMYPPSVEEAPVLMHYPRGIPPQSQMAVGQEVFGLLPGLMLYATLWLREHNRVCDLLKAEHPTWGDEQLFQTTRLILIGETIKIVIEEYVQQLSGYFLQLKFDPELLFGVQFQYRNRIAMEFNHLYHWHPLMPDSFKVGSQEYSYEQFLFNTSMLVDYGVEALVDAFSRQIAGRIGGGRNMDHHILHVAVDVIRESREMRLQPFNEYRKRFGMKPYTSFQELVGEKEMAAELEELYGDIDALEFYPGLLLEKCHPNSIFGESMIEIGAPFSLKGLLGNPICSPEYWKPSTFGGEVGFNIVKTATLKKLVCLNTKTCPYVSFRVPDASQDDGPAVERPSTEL
Test: Inhibition of human COX1 assessed as reduction in appearance of oxidized TMPD at 50 uM using arachidonic acid as substrate by colorimetric assay relative to control
measured_metric: inhibition (%)

{"molecule": "COc1ccc(-c2noc(CC(=O)O)c2-c2ccc(OC)cc2)cc1", "measured_result": 100}
{"molecule": "COc1ccc(-c2noc(CC(=O)NCCCCC(=O)OC[C@H]3OC(O)[C@H](O)[C@@H](O)[C@H]3O)c2-c2ccc(OC)cc2)cc1 (some centres undefined)", "measured_result": 38}
{"molecule": "COc1ccc(-c2noc(CC(=O)OC[C@H]3O[C@@H](O)[C@H](O)[C@@H](O)[C@H]3O)c2-c2ccc(OC)cc2)cc1", "measured_result": 100}
{"molecule": "COc1ccc(-c2noc(CC(=O)NCCCCCCCCCCC(=O)OC[C@H]3OC(O)[C@H](O)[C@@H](O)[C@H]3O)c2-c2ccc(OC)cc2)cc1 (some centres undefined)", "measured_result": 90}

---

Below is a list of entries, each paired with its recorded inhibition value.
Biological target: Prostaglandin G/H synthase 2 (Homo sapiens)
Sequence (whole entry): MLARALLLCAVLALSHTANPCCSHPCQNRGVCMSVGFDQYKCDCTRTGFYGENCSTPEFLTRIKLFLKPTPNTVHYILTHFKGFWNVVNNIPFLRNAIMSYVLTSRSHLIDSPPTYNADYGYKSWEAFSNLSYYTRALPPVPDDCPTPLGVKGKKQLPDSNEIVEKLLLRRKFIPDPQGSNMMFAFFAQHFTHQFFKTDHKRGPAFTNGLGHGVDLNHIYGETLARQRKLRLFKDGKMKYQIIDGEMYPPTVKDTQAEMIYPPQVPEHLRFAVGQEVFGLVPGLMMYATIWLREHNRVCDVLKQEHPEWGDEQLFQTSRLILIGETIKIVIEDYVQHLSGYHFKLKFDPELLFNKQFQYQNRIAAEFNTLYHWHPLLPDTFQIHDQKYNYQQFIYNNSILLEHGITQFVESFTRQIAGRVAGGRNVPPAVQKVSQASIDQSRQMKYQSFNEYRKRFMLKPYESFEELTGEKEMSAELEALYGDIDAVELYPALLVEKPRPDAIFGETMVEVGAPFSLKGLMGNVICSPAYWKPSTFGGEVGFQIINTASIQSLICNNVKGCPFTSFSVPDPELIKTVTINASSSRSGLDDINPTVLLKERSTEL
Experiment: Inhibition of human COX2 assessed as reduction in appearance of oxidized TMPD at 50 uM using arachidonic acid as substrate by colorimetric assay relative to control

{"compound": "COc1ccc(-c2noc(CC(=O)NCCCCC(=O)OC[C@H]3OC(O)[C@H](O)[C@@H](O)[C@H]3O)c2-c2ccc(OC)cc2)cc1 (some centres undefined)", "inhibition": "24%"}
{"compound": "COc1ccc(-c2noc(CC(=O)NCCCCCCCCCCC(=O)OC[C@H]3OC(O)[C@H](O)[C@@H](O)[C@H]3O)c2-c2ccc(OC)cc2)cc1 (some centres undefined)", "inhibition": "64%"}
{"compound": "COc1ccc(-c2noc(CC(=O)O)c2-c2ccc(OC)cc2)cc1 [MOFEZOLAC]", "inhibition": "38%"}
{"compound": "COc1ccc(-c2noc(CC(=O)OC[C@H]3O[C@@H](O)[C@H](O)[C@@H](O)[C@H]3O)c2-c2ccc(OC)cc2)cc1", "inhibition": "87%"}
